Experiment: method code SF-AS, from DOI: 10.1016/j.ejps.2010.09.003, PMID: 20854904
Test Settings: pH 10.0
Entries annotated with measured logD
Measurement Kind: logD

1) CCN(CC)CCC(=O)c1ccccc1 ... 1.59
2) O=C(CCN1CCCC1)c1ccccc1 ... 1.91
3) O=C(CCN1CCCCC1)c1ccccc1 ... 2.4
4) CN(C)CCC(=O)c1ccccc1 ... 1.77

====

Experiment: method code SF-AS, from DOI: 10.1021/jm00299a013, PMID: 5458368
Measurement Kind: logP

1) Cc1ncc([N+](=O)[O-])n1CCCS(C)(=O)=O ... -1
2) CCCS(=O)(=O)CCn1c([N+](=O)[O-])cnc1C ... 0.23

====

Measured logP values are reported for all entries that follow.
Measurement Kind: logP

1) CC1(C)SC2C(NC(O)c3ccccc3)C(=O)N2C1C(=O)O (centres undefined) ... 1.4
2) CC1(C)SC2C(NC(=O)CCOc3ccccc3)C(=O)N2C1C(=O)O (centres undefined) ... 2.28
3) CC1(C)S[C@@H]2[C@H](NC(=O)Cc3ccccc3)C(=O)N2[C@H]1C(=O)O ... 1.83
4) COc1cccc(OC)c1C(=O)N[C@@H]1C(=O)N2[C@@H]1SC(C)(C)[C@@H]2C(=O)O ... 1.22

====

Experiment: method code SF-AS, from DOI: 10.1002/ps.2780140302
Test Settings: pH 5.0
Measurement Kind: logD

1. OC(c1ccc(F)cc1)(c1cncnc1)c1ccccc1Cl (configuration not stated) ... 2.2
2. OC(c1ccccc1)(c1cncnc1)c1ccc(Cl)cc1Cl (configuration not stated) ... 2.56

====

Measured logP, listed per entry for reference.
Experiment: method code SF, from DOI: 10.1016/s0045-6535(97)00338-x
Measurement Kind: logP

1) CC(=O)Nc1ccc(F)cc1F ... 1.5
2) O=S(=O)(CBr)c1ccc(F)cc1 ... 1.74
3) O=[N+]([O-])c1cc(F)ccc1O ... 1.88
4) CC(=O)Oc1ccc(F)cc1 ... 1.41

====

Parameter: logP. Scope: all listed entries.
Experiment: method code …, from Wiggins, H.; Karcher, A.; Michael Wilson, J.; Robb, I. (2008). Determining Octanol/Water Partitioning Coefficients for Industrial Surfactants. Proc. 15th Annual International Petroleum & Biofuels …
Measurement Kind: logP

1. CCCCCCCCCCCCOCCOCCOCCOCCOCCOCCOCCO ... 4.59
2. CCCCCCCCCCCCCCOCCOCCOCCOCCOCCOCCOCCOCCO ... 5.65
3. CCCCCCOCCOCCOCCOCCOCCO ... 1.24
4. CCCCCCCCOCCOCCOCCOCCOCCO ... 2.43
5. CCCCCCCCOCCOCCOCCO ... 2.84
6. CCCCCCCCCCOCCOCCOCCOCCOCCOCCOCCOCCO ... 3.09

====

Experiment: method code SF, from DOI: 10.1074/jbc.m009093200, PMID: 11092892
Test Settings: pH 7.4
Measurement Kind: logD

1. COC1=C(OC)C(=O)C(CCCCCCCCCCBr)=C(C)C1=O ... 2.49

====

Experiment: method code SF-AS, from DOI: 10.1039/ft9938903773
Measurement Kind: logP

1. O=C1C=CC(=O)C=C1 ... 0.3
2. O=C1C=CC(=O)c2c(O)ccc(O)c21 ... 1.79

====

Experiment: method code …, from Korenman, I.; Polumestnaya, I.; Mezentseva, P. (1979). Investigations of the relationship of extraction of 1-naphthol and some of its derivatives by the method of correlation equations. Zh. Prikl. …
Test Settings: pH 2.0
Measurement Kind: logD

1. O=Nc1c(Br)cc2ccccc2c1O ... 2.93

====

Measurement Kind: logP

1) COc1cc2c(N)nc(N3CCN(C(=O)OCC(C)(C)O)CC3)nc2c(OC)c1OC ... 1.3

====

Experiment: method code SF-AS, from DOI: 10.1023/a:1018977225919, PMID: 10554109
Test Settings: pH 3.5
Reported logD values for a set of compounds
Measurement Kind: logD

1) CCCCCC(O)C=CC1C(O)CC(=O)C1CCCCCCC(=O)O (configuration not stated) ... 3.12
2) C[C@H](CCC(=O)O)[C@H]1CC[C@H]2[C@@H]3CC[C@@H]4C[C@H](O)CC[C@]4(C)[C@H]3C[C@H](O)[C@]12C ... 3.5

====

Experiment: method code SF-RC, from DOI: 10.1016/s0969-8051(01)00233-5, PMID: 11518650
Measurement Kind: logP

1) CN(C)CCCF ... 1.27

====

Experiment: method code SF-RC, from DOI: 10.1111/j.2042-7158.1976.tb04141.x, PMID: 6703
Measurement Kind: logP

1) O=C(CCCN1CCN(c2ccccn2)CC1)c1ccc(F)cc1 ... 3.3

====

Measurement Kind: logP

1) CCNc1nc(NC(C)C(C)C)nc(SC)n1 (stereo unspecified) ... 3.76

====

Experiment: method code SF, from DOI: 10.1016/s0045-6535(97)00338-x
Test Settings: pH 2.0
Measurement Kind: logD

1. O=C(O)COc1ccc(F)cc1 ... 1.57

====

Listed here: items and their measured logP.
Measurement Kind: logP

1) O=C(Nc1ccc2ncnc(Nc3ccc(F)c(Cl)c3)c2c1)c1ccc(F)cc1 ... 4.55
2) O=C(Nc1ccc2ncnc(Nc3ccc(F)c(Cl)c3)c2c1)c1ccc(I)cc1 ... 4.83
3) O=C(Nc1ccc2ncnc(Nc3ccc(F)c(Cl)c3)c2c1)c1cccc(I)c1 ... 5.58

====

Experiment: method code SF-AS, from DOI: 10.1248/bpb1978.4.759, PMID: 7320829
Test Settings: pH 7.0
Measurement Kind: logD

1) O=C1NC(=O)C(c2ccccc2)(c2ccccc2)N1S(=O)(=O)c1ccccc1 ... 1.93

====

Experiment: method code SF-AS, from DOI: 10.1016/0048-3575(89)90091-6
Measurement Kind: logP

1) CC1(C)C(C=C2CCSC2=O)C1C(=O)OCc1ccccc1 (stereo unspecified) ... 4.02

====

Experiment: method code SF-AS, from DOI: 10.1016/j.ejmech.2007.07.011, PMID: 17869385
Test Settings: pH 7.4
Measurement Kind: logD

1. Cc1c(O)c(=O)ccn1CCCn1ccnc1 ... -0.46

====

Experiment: method code SF-AS, from DOI: 10.1111/j.2042-7158.1989.tb06480.x, PMID: 2570831
Test Settings: pH 7.4
Measurement Kind: logD

1) Nc1ncnc2c1ncn2C(c1ccccc1)c1ccccc1 ... 3.19

====

Experiment: method code SF-AS, from PMID: 7149911
Test Settings: pH 8.9
Measurement Kind: logD

1. CCN(N=O)C(=O)Nc1ccccc1 ... 2.25
2. CN(N=O)C(=O)Nc1ccccc1 ... 1.72
3. CN(N=O)C(=O)Nc1ccc(F)cc1 ... 1.88
4. CN(N=O)C(=O)N(C)c1ccccc1 ... 1.58
5. CN(N=O)C(=O)Oc1cccc2ccccc12 ... 2.85
6. CC(C)N(N=O)C(=O)Nc1ccccc1 ... 2.5

====

Experiment: method code SF-RC, from DOI: 10.1016/j.nucmedbio.2008.11.010, PMID: 19217534
Test Settings: pH 7.4
Measurement Kind: logD

1. N#Cc1ccc(C(c2ccc(C#N)cc2)n2cncn2)cc1 ... 1.84

====

# logP per record follows
Measurement Kind: logP

1) Cc1nc(NCCCO)c(C#N)cc1-c1ccccc1 ... 2.72
2) COc1ccc(-c2cc(C#N)c(Cl)nc2C)cc1OC ... 2.86
3) Cc1nc(NCC(C)O)c(C#N)cc1-c1ccccc1 (stereo not drawn) ... 2.72

====

Measurement Kind: logP

1. CC1CCC2C(C)C(OC3OC(C(=O)O)C(O)C(O)C3O)OC3OC4(C)CCC1C32OO4 (centres undefined) ... 1.08
2. CCOC1OC2OC3(C)CCC4C(OC5OC(C(=O)O)C(O)C(O)C5O)CCC(C1C)C24OO3 (centres undefined) ... 1.05
3. CCOC1OC2OC3(C)C=C(O)C4C(C)CCC(C1C)C24OO3 (centres undefined) ... 2.7
4. CCOC1OC2OC3(C)CC(OC4OC(C(=O)O)C(O)C(O)C4O)C4C(C)CCC(C1C)C24OO3 (centres undefined) ... 1.73

====

logP values for the molecules below.
Measurement Kind: logP

1. CO[C@@]12CCC(=O)[C@]3(C)Oc4c(O)ccc5c4[C@@]31CCN(C)[C@@H]2C5 ... 1.12
2. CO[C@@]12CCC(=O)[C@@H]3Oc4c(O)ccc5c4[C@@]31CCN(C)[C@@H]2C5 ... 0.6

====

Experiment: method code SF, from DOI: 10.1016/j.bmc.2011.10.022, PMID: 22100260
Test Settings: pH 7.4
Measurement Kind: logD

1) CCN1CCN(S(=O)(=O)c2cnc(O)c(-c3nc4c5n(nc4c(=O)[nH]3)CCCC5CCOC)c2)CC1 (stereo unspecified) ... 1.6
